measured target: BaF3_HER2WT cells (Homo sapiens)
Sequence (P04626 whole entry, change not shown): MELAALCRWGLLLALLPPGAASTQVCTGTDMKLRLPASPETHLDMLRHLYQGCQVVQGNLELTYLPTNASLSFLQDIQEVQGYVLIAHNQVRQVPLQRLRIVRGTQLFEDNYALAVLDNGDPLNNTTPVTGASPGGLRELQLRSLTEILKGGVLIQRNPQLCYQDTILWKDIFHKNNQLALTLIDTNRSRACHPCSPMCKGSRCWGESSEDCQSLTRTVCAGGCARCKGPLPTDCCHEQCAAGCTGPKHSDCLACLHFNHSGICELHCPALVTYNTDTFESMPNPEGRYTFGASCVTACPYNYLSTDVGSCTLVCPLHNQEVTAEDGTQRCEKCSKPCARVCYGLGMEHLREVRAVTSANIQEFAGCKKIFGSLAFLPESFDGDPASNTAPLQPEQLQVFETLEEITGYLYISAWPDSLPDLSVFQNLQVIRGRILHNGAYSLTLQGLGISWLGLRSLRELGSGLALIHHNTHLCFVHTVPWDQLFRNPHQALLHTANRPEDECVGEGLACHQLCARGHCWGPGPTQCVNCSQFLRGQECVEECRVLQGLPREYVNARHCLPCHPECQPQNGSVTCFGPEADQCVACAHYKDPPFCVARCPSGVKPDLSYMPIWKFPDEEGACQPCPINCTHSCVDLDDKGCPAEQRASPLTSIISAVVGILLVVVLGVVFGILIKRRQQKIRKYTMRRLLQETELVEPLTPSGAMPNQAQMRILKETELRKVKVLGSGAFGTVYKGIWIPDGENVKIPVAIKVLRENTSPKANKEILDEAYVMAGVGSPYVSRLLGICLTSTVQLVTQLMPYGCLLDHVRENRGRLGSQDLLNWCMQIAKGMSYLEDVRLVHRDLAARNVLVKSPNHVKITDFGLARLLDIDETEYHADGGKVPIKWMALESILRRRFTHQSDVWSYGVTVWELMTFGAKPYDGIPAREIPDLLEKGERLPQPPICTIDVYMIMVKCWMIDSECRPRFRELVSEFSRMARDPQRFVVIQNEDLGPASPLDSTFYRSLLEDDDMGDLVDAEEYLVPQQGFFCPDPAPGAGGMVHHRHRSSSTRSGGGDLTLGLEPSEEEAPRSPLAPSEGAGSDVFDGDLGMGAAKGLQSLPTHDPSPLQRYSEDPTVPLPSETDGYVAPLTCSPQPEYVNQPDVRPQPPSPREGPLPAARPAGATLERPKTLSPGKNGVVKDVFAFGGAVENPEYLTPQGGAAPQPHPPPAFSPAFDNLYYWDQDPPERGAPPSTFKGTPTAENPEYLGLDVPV
experiment summary: Cell growth inhibition assay (CellTiterGlo), BaF3_HER2WT
Assay type: cell-based
protocol conditions: 3-day treatment, CellTiterGlo, read-out: Cell growth inhibition activity, HER2 WT
metric: GI50

C=C(C#N)C(=O)N1CCC(c2ccn3ncnc(Nc4ccc(Oc5ccn6ncnc6c5)c(C)c4)c23)CC1 [Example 27] : 500 to 1500 nM

Entry Cc1cc(Nc2ncnn3ccc(C4CN(C(=O)/C=C/CN5CC(F)(F)C5)C4)c23)ccc1Oc1ccn2ncnc2c1 [Example 91] , GI50 reported as < 200 nM

Entry Cc1cc(Nc2ncnn3ccc(C4CN(C(=O)/C=C/CN(C)C)C4)c23)ccc1Oc1ccn2ncnc2c1 [Example 1] , GI50 reported as < 200 nM

Entry C=CC(=O)N1CC(c2ccn(-c3ccn4ncnc(Nc5ccc(Oc6ccn7ncnc7c6)c(C)c5)c34)n2)C1 [Example 10] , GI50 reported as 200 to 500 nM

* * *

measured target: ERBB2-A775_G776insYVMA (ERBB2YVMA) (Homo sapiens, UniProt P04626, INS775YVMA)
Sequence (P04626 with tags, fused parts or gaps INS775YVMA limits assumed): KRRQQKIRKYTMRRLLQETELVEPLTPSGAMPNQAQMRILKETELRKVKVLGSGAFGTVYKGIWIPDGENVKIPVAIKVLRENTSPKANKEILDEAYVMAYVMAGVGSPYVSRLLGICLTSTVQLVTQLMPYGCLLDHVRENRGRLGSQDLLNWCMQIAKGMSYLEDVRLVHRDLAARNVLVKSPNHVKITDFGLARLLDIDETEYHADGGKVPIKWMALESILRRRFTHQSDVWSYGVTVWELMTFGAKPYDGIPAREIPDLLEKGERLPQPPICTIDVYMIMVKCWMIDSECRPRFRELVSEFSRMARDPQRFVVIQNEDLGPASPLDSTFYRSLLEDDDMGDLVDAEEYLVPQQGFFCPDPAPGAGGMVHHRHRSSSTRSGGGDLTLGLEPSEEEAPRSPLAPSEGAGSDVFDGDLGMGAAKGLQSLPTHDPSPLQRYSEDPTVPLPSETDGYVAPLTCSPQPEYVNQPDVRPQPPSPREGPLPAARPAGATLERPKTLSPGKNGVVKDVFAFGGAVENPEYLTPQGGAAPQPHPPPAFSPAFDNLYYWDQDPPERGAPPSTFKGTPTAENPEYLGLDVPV
experiment summary: HotSpot radiometric kinase activity assay, ERBB2YVMA
protocol conditions: biochemical activity, 20 nM ERBB2YVMA, 10 μM 33P-ATP, 2 hours, read-out: HER2 - YVMA IC50
metric: IC50

Cc1cc(Nc2ncnn3ccc(C4CN(C(=O)/C=C/CN)C4)c23)ccc1Oc1ccn2ncnc2c1 [Example 87] : < 200 nM
C=CC(=O)NC1CCN(C(=O)c2ccn3ncnc(Nc4ccc(Oc5ccn6ncnc6c5)c(C)c4)c23)C1 (stereo not shown) [Example 4] : < 200 nM
CN(C)C/C=C/C(=O)N1CC(c2ccn3ncnc(Nc4cnc(Oc5cccc(C(F)(F)F)c5)c(Cl)c4)c23)C1 [Example 90] : 1500 to 5000 nM
Cc1cc(Nc2ncnn3ccc(C4CN(C(=O)/C=C/CN5CCCC5)C4)c23)ccc1Oc1ccn2ncnc2c1 [Example 97] : < 200 nM
C=CC(=O)N1CCN(c2ccn3ncnc(Nc4ccc(Oc5ccn6ncnc6c5)c(C)c4)c23)CC1 [Example 6] : < 200 nM

Entry Cc1cc(Nc2ncnn3cnc(C4CCN(C(=O)/C=C/CN(C)C)CC4)c23)ccc1Oc1ccn2ncnc2c1 [Example 88] , IC50 reported as 500 to 1500 nM

Entry C=CC(=O)N1CCCC(c2ccn3ncnc(Nc4ccc(Oc5ccn6ncnc6c5)c(C)c4)c23)C1 (stereo not shown) [Example 12] , IC50 reported as < 200 nM

* * *

In this section, each of the molecules is paired with its reported GI50.
measured target: BaF3_HER2YVMA cells (Homo sapiens, UniProt P04626, DUP772-775, cells depend on it)
Sequence (P04626 with tags, fused parts or gaps DUP772-775): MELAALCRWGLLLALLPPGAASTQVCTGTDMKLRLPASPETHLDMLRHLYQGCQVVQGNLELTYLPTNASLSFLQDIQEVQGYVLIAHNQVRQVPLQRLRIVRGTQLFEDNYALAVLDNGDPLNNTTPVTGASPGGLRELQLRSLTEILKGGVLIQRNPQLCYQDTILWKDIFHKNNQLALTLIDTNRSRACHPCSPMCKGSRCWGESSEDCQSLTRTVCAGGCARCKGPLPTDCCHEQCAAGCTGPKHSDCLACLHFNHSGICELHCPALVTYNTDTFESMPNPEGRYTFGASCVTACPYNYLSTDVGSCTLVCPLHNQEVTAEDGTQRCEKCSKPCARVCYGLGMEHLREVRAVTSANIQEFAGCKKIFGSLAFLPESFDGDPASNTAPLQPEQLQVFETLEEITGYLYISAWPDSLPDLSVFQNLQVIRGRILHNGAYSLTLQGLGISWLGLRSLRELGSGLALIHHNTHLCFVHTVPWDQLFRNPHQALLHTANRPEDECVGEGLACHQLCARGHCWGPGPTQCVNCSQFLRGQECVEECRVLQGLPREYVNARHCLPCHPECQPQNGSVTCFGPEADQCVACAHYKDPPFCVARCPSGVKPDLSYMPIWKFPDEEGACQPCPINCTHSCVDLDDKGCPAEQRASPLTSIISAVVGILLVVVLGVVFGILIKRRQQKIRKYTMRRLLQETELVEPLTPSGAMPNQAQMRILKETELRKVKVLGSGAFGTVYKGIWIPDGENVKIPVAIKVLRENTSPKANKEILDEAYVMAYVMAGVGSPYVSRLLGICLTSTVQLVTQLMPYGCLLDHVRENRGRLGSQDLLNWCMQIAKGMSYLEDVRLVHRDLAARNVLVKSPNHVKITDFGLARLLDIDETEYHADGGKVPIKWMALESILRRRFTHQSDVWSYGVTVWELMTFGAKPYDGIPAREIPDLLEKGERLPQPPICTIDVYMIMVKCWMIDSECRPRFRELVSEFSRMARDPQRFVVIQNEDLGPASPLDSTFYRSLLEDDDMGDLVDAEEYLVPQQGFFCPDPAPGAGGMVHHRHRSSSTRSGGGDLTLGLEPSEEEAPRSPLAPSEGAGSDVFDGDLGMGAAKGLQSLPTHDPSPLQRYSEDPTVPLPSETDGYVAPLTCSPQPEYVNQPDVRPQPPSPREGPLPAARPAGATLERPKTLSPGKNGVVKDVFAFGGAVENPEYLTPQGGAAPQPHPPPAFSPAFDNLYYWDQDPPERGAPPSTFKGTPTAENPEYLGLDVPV
experiment summary: Cell growth inhibition assay (CellTiterGlo), BaF3_HER2YVMA
Type: cell-based
protocol conditions: 3-day treatment, CellTiterGlo, read-out: Cell growth inhibition activity, HER2 - YVMA

C=C(CN(C)C)C(=O)N1CC(c2ccn3ncnc(Nc4ccc(Oc5ccc6c(c5)ncn6C)c(C)c4)c23)C1 : < 200 nM
Cc1cc(Nc2ncnn3ccc(N4CCN(C(=O)/C=C/CN(C)C)CC4=O)c23)ccc1Oc1ccn2ncnc2c1 : 1500 to 5000 nM
Cc1cc(Nc2ncnn3ccc(C4CCCN(C(=O)/C=C/CN(C)C)CC4)c23)ccc1Oc1ccn2ncnc2c1 (stereo not shown) : < 200 nM
Cc1cc(Nc2ncnn3ccc(C4CC5(C4)CN(C(=O)/C=C/CN(C)C)C5)c23)ccc1Oc1ccn2ncnc2c1 : 500 to 1500 nM
Cc1cc(Nc2ncnn3ccc(-c4cnn(CCNC(=O)/C=C/CN(C)C)c4)c23)ccc1Oc1ccn2ncnc2c1 : 1500 to 5000 nM

Entry C=CC(=O)N1CCC(c2ccn3ncnc(Nc4ccc(Oc5ccc6c(c5)ncn6C)c(C)c4)c23)CC1 , GI50 reported as < 200 nM

Entry Cc1cc(Nc2ncnn3ccc(C4CCN(C(=O)/C=C/CN5CC6COCC6C5)CC4)c23)ccc1Oc1ccn2ncnc2c1 (stereo not shown) , GI50 reported as < 200 nM
